# EXPERIMENTAL SYSTEM: UniProtKB P34969
# Sequence (P34969 whole entry): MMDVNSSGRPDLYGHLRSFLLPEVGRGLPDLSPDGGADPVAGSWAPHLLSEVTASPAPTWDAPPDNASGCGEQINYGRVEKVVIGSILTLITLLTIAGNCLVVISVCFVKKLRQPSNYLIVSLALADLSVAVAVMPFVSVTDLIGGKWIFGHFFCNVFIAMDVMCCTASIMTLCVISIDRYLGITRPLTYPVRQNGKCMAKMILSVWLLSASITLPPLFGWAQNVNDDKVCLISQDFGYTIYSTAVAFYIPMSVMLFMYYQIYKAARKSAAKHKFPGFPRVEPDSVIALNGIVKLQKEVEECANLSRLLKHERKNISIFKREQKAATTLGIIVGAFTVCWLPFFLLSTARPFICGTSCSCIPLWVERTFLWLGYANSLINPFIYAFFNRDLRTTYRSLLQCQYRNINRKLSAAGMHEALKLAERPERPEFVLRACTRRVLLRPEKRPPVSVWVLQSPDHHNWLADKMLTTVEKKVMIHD
MEASURED ENDPOINT: pKi
Give bare numbers, as −log10 of the molar value.

# value of pKi, UniProtKB P34969, item O=C(C1CCCCC1)N(CCN1CC=C(c2ccccc2)CC1)c1ccccn1 = 7.22

====

# EXPERIMENTAL SYSTEM: 5-hydroxytryptamine receptor 1A (Homo sapiens, UniProt P08908)
# Sequence (P08908 whole entry): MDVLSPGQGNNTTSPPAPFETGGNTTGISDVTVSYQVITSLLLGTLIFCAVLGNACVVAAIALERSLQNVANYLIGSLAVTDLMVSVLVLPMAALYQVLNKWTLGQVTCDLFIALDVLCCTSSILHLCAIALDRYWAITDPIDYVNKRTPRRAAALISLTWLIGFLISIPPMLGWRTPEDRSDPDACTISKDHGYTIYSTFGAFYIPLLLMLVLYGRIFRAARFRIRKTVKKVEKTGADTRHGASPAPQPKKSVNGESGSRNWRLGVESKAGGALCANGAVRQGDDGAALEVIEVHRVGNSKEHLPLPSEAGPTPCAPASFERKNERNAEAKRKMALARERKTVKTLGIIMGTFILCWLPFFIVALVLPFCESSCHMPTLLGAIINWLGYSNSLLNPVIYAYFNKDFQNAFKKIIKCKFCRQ
# MEASUREMENT DESCRIPTION: biochemical
# Description: Displacement of [3H]8-OH-DPAT from human cloned 5-HT1A receptor expressed in CHO cells after 60 mins by liquid scintillation counting
pKi: −log10 of the molar value.
Rule: pKi under 8 gives NO, otherwise YES.

These solved cases illustrate the format of a correct answer.
SMILES TEXT	CLASS
COc1ccccc1N1CCN(CCN(C(=O)c2cnc3ccccc3n2)c2ccccn2)CC1	YES
O=C(c1cnc2ccccc2n1)N(CCN1CCN(c2ccccc2)CC1)c1ccccn1	NO
COc1ccccc1N1CCN(CCN(C(=O)c2cccc3ccccc23)c2ccccn2)CC1	YES
O=C(C1CCCCC1)N(CCN1CC=C(c2ccccc2)CC1)c1ccccn1	YES
O=C(C1CCCCC1)N(CCN1CCN(c2ccccc2)CC1)c1ccccn1	YES
COc1ccccc1N1CCN(CCN(C(=O)c2ccc3ccccc3c2)c2ccccn2)CC1	YES

Okay, next one:
Is pKi at least 8? Consider O=C(c1cccc2ccccc12)N(CCN1CCN(c2ccccc2)CC1)c1ccccn1
NO
